Tested on: P12-Ichikawa
Test: cell viability relative to DMSO control; higher = less cytotoxic
Conditions: HPLM + 10% dialyzed FBS; 48 h; 1.71 µM
Entries and their cell viability
property-label: cell viability (%)

1) C[C@H]1[C@@H](CC(C[C@H]2O[C@@H]3O[C@]4(C)CC[C@H]5[C@H](C)CC[C@@H]([C@H]2C)[C@@]35OO4)C[S+](=O)([O-])c2ccc(COC(=O)N(C)C)cc2)O[C@@H]2O[C@]3(C)CC[C@H]4[C@H](C)CC[C@@H]1[C@@]24OO3 55.5
2) CCCn1c(=O)c2[nH]c(C34CC5CC3C[C@@H](C5)C4)nc2n(CCC)c1=O 99.5
3) CNC(=O)c1cc(Oc2ccc(NC(=O)Nc3cc(C(C)(C)C)nn3-c3ccc4ncccc4c3)c(F)c2)ccn1 131
4) C[C@@H]1CN(CC(=O)N2CC(C)(C)c3ncc(Cc4ccc(F)cc4)cc32)[C@@H](CN2CCOC[C@H]2C)CN1 112
5) CO[C@@H]1[C@H](N(C)C(=O)c2ccccc2)C[C@H]2O[C@]1(C)n1c3ccccc3c3c4c(c5c6ccccc6n2c5c31)C(=O)NC4 109
6) COC1=CC=C2C(=CC=NC2=C1)OC3=CC=C(NC(=O)\C4=C(C)\N(CC(C)(C)O)N(C4=O)C5=CC=CC=C5)C=C3F 132
7) COc1cc2c(NC3CCN(C(C)C)CC3)nc(C3CCCCC3)nc2cc1OCCCN1CCCC1 123
8) CC(C)[C@H](CO)Nc1nc(Nc2ccc(C(=O)O)c(Cl)c2)c2ncn(C(C)C)c2n1 103

====

System: NOMO1
Assay: AUC of viability dose-response curve (% viability x log10 dose units); higher = less sensitive
Conditions: RPMI 5 mM glucose + 10% dialyzed FBS; 48 h

compound	AUC of viability dose-response curve
Cc1cnc(Nc2ccc(OCCN3CCCC3)cc2)nc1Nc1cccc([S+](=O)([O-])NC(C)(C)C)c1	473
CCCCOc1ccc(C(=O)Nc2ccc(F)cc2F)cc1	433
C=C1C[C@@]2(O)O[C@@]3(C[C@H]2C(C)C)[C@@H](C)CC[C@@H]13	465
Clc1ccc(COC(Cn2ccnc2)c2ccc(Cl)cc2Cl)cc1 (centres undefined)	470
CN1CCN(c2cccc(Nc3nc4c(-c5ccc([S+](C)(=O)[O-])cc5)cccn4n3)c2)CC1	450
CCC1=C(C)CN(C(=O)NCCc2ccc(S(=O)(=O)NC(=O)N[C@H]3CC[C@H](C)CC3)cc2)C1=O	457
COc1ccc(-c2nc3cc(C4=NNC(=O)CC4C)ccc3[nH]2)cc1 (centres undefined)	461
CCC(CC)[C@H](NC(C)=O)[C@@H]1[C@H](O)[C@@H](C(=O)O)C[C@H]1NC(=N)N	395
Cn1c(=O)c2c(ncn2CC(O)CO)n(C)c1=O (centres undefined)	455

====

Test system: SEM cells
Experiment: cell viability relative to DMSO control; higher = less cytotoxic
Conditions: HPLM + 10% dialyzed FBS; 48 h; 0.00702 µM
property-label: cell viability

compound	value-observed
CCCCOc1ccc(C(=O)Nc2ccc(F)cc2F)cc1	67.1%
CC(Oc1ccc(O)cc1)(P(=O)(O)O)P(=O)(O)O	98.2%
N#Cc1c(C2CCNCC2)cc(-c2c(O)cccc2OCC2CC2)nc1N	107%
CN(C)[C@H]\1[C@@H]2[C@@H](O)[C@@H]\3C(=C)C4=C(C(=CC=C4)O)C(=O)C3=C(\O)[C@@]2(O)C(=O)\C(=C1O)C(N)=O	81.1%
NC/1=N/C(=O)N(/C=C1)[C@H]2CC[C@@H](CO)O2	93.8%
c1cc(-c2sc(-c3ccncc3)c(-c3ccncc3)c2-c2ccncc2)ccn1	108%
CC(C)c1ccc2oc3nc(N)c(C(=O)O)cc3c(=O)c2c1	96.6%
CC(=O)SCC(Cc1ccccc1)C(=O)NCC(=O)OCc1ccccc1 (stereo not given)	93.3%
CCC(CC)[C@H](NC(C)=O)[C@@H]1[C@H](O)[C@@H](C(=O)O)C[C@H]1NC(=N)N	77.2%
Cn1c(=O)c2c(ncn2CC(O)CO)n(C)c1=O (stereo not given)	116%
